# HEK293 LD50 per record follows
tested on: HEK293 (kidney) cell line; test: In vitro cytotoxicity, cell viability; type: cell-based; conditions: 48 h incubation, Cell-Titer Glo cell viability
Give a bare numeral; the unit µM is implied.

Please review the following examples before continuing.
C#Cc1ccc2c(c1)C(c1ccccc1F)=N[C@@H](C)c1c(C(=O)NC3CC3)ncn1-2 [8c]    63.8
C#Cc1ccc2c(c1)C(c1ccccc1F)=N[C@@H](C)c1c(C(=O)OC)ncn1-2 [5a]    68.2
CCOC(=O)c1ncn2c1[C@H](C)N=C(c1ccccc1F)c1cc(C3CC3)ccc1-2 [compound 3]    58.0
C#Cc1ccc2c(c1)C(c1ccccc1F)=N[C@@H](C)c1c(-c3nc(C(C)C)no3)ncn1-2 [9c]    32.5
C#Cc1ccc2c(c1)C(c1ccccc1F)=N[C@@H](C)c1c(C(=O)OC(C)(C)CC)ncn1-2 [5e]    17.2

Q) Answer with reported HEK293 LD50 of C#Cc1ccc2c(c1)C(c1ccccc1F)=N[C@@H](C)c1c(C(=O)OCC)ncn1-2 [compound 2]
A) 28.0

Q) Read the entry COC(=O)c1ncn2c1[C@H](C)N=C(c1ccccc1F)c1cc(Br)ccc1-2 [4a] and write its reported HEK293 LD50.
A) 98.5
